# Population Membrane Permeable-Phenotype (%) per entry
Test system: HEK-293T
assay-text: Multiplex assay against HEK293T
Assay type: toxicity, cell-based
reported-conditions: human, 48 h, 1 µM, compound concentration 1 uM, replicate 2
endpoint: Population Membrane Permeable-Phenotype (%)

- compound: "O=C(O)c1cc2ccccc2c(Cc2c(O)c(C(=O)O)cc3ccccc23)c1O"
  unit-abbreviation: "%"
  numeric-value: 0
- compound: "CCNC1(C(N)=O)CCN(c2ncnc3c2nc(-c2ccccc2Cl)n3-c2ccc(Cl)cc2)CC1"
  unit-abbreviation: "%"
  numeric-value: 0
- compound: "O=C(NCC(=O)N1CC[C@H](N[C@H]2CC[C@@](O)(c3ccc(-c4ncccn4)cn3)CC2)C1)c1cccc(C(F)(F)F)c1"
  unit-abbreviation: "%"
  numeric-value: 0
- compound: "CCCn1c(=O)c2[nH]c(C3CCCC3)nc2n(CCC)c1=O"
  unit-abbreviation: "%"
  numeric-value: 0
- compound: "C[C@H](NC(=O)c1c(C(F)F)nn(C)c1Oc1cccc(C(F)(F)F)c1)c1ccc(C(=O)O)cc1"
  unit-abbreviation: "%"
  numeric-value: 0
- compound: "CCCC(CCC)C(=O)O"
  unit-abbreviation: "%"
  numeric-value: 1
- compound: "CN(C)c1ccnc2sc3c(=O)n(N4CCCCCC4)cnc3c12"
  unit-abbreviation: "%"
  numeric-value: 2
- compound: "CC(C)(C)c1ccc(S(=O)(=O)Nc2ccc(Cl)cc2C(=O)c2cc[n+]([O-])cc2)cc1"
  unit-abbreviation: "%"
  numeric-value: 2
- compound: "N[C@@]1(C(=O)O)CO[C@H]2[C@H](C(=O)O)[C@H]21"
  unit-abbreviation: "%"
  numeric-value: 0
- compound: "O=C(NCCO)c1cccc(-c2cc(Nc3ccc(OC(F)(F)F)cc3)ncn2)c1"
  unit-abbreviation: "%"
  numeric-value: 0
- compound: "Cl.Clc1ccc2nsnc2c1NC1=NCCN1 [TIZANIDINE HYDROCHLORIDE]"
  unit-abbreviation: "%"
  numeric-value: 1
- compound: "CN(C)CCCc1cc(C(=O)Nc2ccc(-c3ccncc3)cc2)ccc1O.Cl.Cl"
  unit-abbreviation: "%"
  numeric-value: 1
- compound: "Cc1nc2ccc(Oc3ccc(F)cc3)cc2c(=O)n1C[C@H]1CCCN(C(C)C)C1.Cl"
  unit-abbreviation: "%"
  numeric-value: 0
- compound: "COc1ccc2c(c1)C(C(=O)N(Cc1ccc(N(C)C)cc1)c1ccc(C(C)C)cc1)CCC2.Cl (stereo not drawn)"
  unit-abbreviation: "%"
  numeric-value: 0
- compound: "C[C@@H]1C[C@H]2[C@@H]3CCC4=CC(=O)C=C[C@]4(C)[C@@]3(F)[C@@H](O)C[C@]2(C)[C@@]1(O)C(=O)CO"
  unit-abbreviation: "%"
  numeric-value: 0
- compound: "N#Cc1c(N)nc(SCc2csc(-c3ccc(Cl)cc3)n2)c(C#N)c1-c1ccc(OCCO)cc1"
  unit-abbreviation: "%"
  numeric-value: 2
- compound: "CN1CCN(c2nc3cc(C(F)(F)F)ccc3n3cccc23)CC1.O=C(O)/C=C\\C(=O)O.O=C(O)/C=C\\C(=O)O"
  unit-abbreviation: "%"
  numeric-value: 0
- compound: "CC(=O)NCCc1c(Cc2ccccc2)[nH]c2ccccc12"
  unit-abbreviation: "%"
  numeric-value: 0

* * *

System: Fibroblast
assay-text: Multiplex assay against human fibroblast
Assay type: toxicity, cell-based
reported-conditions: 24 h, 10 µM, compound concentration 10 uM, replicate 2
endpoint: Population Mitochondria Different-Phenotype (%)

- structure-smiles-string: "CC(C)(C)c1ccc(S(=O)(=O)Nc2ccc(Cl)cc2C(=O)c2cc[n+]([O-])cc2)cc1"
  unit-abbreviation: "%"
  numeric-value: 9
- structure-smiles-string: "C[C@@H]1C[C@H]2[C@@H]3CCC4=CC(=O)C=C[C@]4(C)[C@@]3(F)[C@@H](O)C[C@]2(C)[C@@]1(O)C(=O)CO"
  unit-abbreviation: "%"
  numeric-value: 2
- structure-smiles-string: "CN(C)CCCc1cc(C(=O)Nc2ccc(-c3ccncc3)cc2)ccc1O.Cl.Cl"
  unit-abbreviation: "%"
  numeric-value: 5
- structure-smiles-string: "CCCn1c(=O)c2[nH]c(C3CCCC3)nc2n(CCC)c1=O"
  unit-abbreviation: "%"
  numeric-value: 4

* * *

Test system: HEK-293T
assay-text: Multiplex assay against HEK293T
Format: toxicity, cell-based
reported-conditions: human, 12 h, 1 µM, compound concentration 1 uM, replicate 1
Label met when Total Cell Count is at or above 400; anything below gets not met.

- molecule: "COc1c(C)cc(NC(=O)c2nn(Cc3ccc(F)cc3)c3c2CN(C(=O)c2ccc[nH]2)C[C@]3(C)C(N)=O)cc1C"
  classification: "met"
- molecule: "CSCC[C@H](NC=O)C(=O)N[C@@H](CC(C)C)C(=O)N[C@@H](Cc1ccccc1)C(=O)O"
  classification: "met"
- molecule: "Cc1ccc(/C(=C\\CN2CCCC2)c2ccccn2)cc1 [TRIPROLIDINE]"
  classification: "met"
- molecule: "CC[C@H]1OC(=O)[C@H](C)[C@@H](O[C@H]2C[C@@](C)(OC)[C@@H](O)[C@H](C)O2)[C@H](C)[C@@H](O[C@@H]2O[C@H](C)C[C@H](N(C)C)[C@H]2O)[C@@]2(C)CC(C)=C(O2)[C@H](C)[C@@H](O)[C@]1(C)O"
  classification: "not met"

* * *

System: HEK-293T
assay-text: Multiplex assay against HEK293T
Type: toxicity, cell-based
reported-conditions: human, 48 h, 10 µM, compound concentration 10 uM, replicate 1
Label 1 when Population Tubulin-Different-Phenotype (%) is at or above 50%; anything below gets 0.

- molecule: "CCOc1c2c(c(OCC)c3ncccc13)CN(c1ccc(CS(=O)(=O)NC(=O)Cc3ccccc3OC)cc1C)C2=O"
  classification: 0
- molecule: "COc1ccccc1N1CCN(CCCCNC(=O)c2ccc3ccccc3c2)CC1.Cl"
  classification: 1
- molecule: "CN(C)c1ccnc2sc3c(=O)n(N4CCCCCC4)cnc3c12"
  classification: 1
- molecule: "COc1c(C)cc(NC(=O)c2nn(Cc3ccc(F)cc3)c3c2CN(C(=O)c2ccc[nH]2)C[C@]3(C)C(N)=O)cc1C"
  classification: 1
- molecule: "O=C(O)Cc1ccccc1Nc1c(Cl)cccc1Cl [DICLOFENAC]"
  classification: 0
- molecule: "C[C@H]1[C@H]2CC[C@H]3[C@@H]4CC=C5C[C@@H](N(C)C)CC[C@]5(C)[C@H]4CC[C@]23CN1C [CONESSINE]"
  classification: 0
- molecule: "C[C@@H]1C[C@H]2[C@@H]3CCC4=CC(=O)C=C[C@]4(C)[C@@]3(F)[C@@H](O)C[C@]2(C)[C@@]1(O)C(=O)CO [DEXAMETHASONE]"
  classification: 0
- molecule: "Oc1c(CN2CCN(c3ccccn3)CC2)cc(Cl)c2cccnc12"
  classification: 0
- molecule: "O=C(O)c1cc2ccccc2c(Cc2c(O)c(C(=O)O)cc3ccccc23)c1O [PAMOIC ACID]"
  classification: 0
- molecule: "CC1(COc2ccc3c(c2)ncn3-c2ccc3cccc(N4CCC(N)CC4)c3n2)COC1 [CRENOLANIB]"
  classification: 1
- molecule: "O=S(=O)(c1ccccc1)c1cnc2c(N3CCNCC3)cccc2c1 [INTEPIRDINE]"
  classification: 0
- molecule: "CCNC1(C(N)=O)CCN(c2ncnc3c2nc(-c2ccccc2Cl)n3-c2ccc(Cl)cc2)CC1 [OTENABANT]"
  classification: 1
- molecule: "Cc1ccc(/C(=C\\CN2CCCC2)c2ccccn2)cc1 [TRIPROLIDINE]"
  classification: 0
- molecule: "CN(C)CCCc1cc(C(=O)Nc2ccc(-c3ccncc3)cc2)ccc1O.Cl.Cl"
  classification: 0
- molecule: "Cl.Clc1ccc2nsnc2c1NC1=NCCN1 [TIZANIDINE HYDROCHLORIDE]"
  classification: 0
- molecule: "CN1CCN2c3ncccc3Cc3ccccc3C2C1 (stereo not drawn) [MIRTAZAPINE]"
  classification: 0
- molecule: "O=C1COc2nccc(-c3ccccc3F)c2CN1Cc1cc(C(F)(F)F)cc(C(F)(F)F)c1"
  classification: 0

* * *

System: U2OS
assay-text: Multiplex assay against U2OS
Assay type: toxicity, cell-based
reported-conditions: human, 48 h, 10 µM, compound concentration 10 uM, replicate 1
endpoint: Population Mitochondria Different-Phenotype (%)

- molecule: "CN(C)CCCc1cc(C(=O)Nc2ccc(-c3ccncc3)cc2)ccc1O.Cl.Cl"
  numeric-value: 3
- molecule: "CCNC1(C(N)=O)CCN(c2ncnc3c2nc(-c2ccccc2Cl)n3-c2ccc(Cl)cc2)CC1"
  numeric-value: 55
- molecule: "CC(=O)NCCc1c(Cc2ccccc2)[nH]c2ccccc12"
  numeric-value: 3
- molecule: "Cc1nc2ccc(Oc3ccc(F)cc3)cc2c(=O)n1C[C@H]1CCCN(C(C)C)C1.Cl"
  numeric-value: 36
- molecule: "O=S(=O)(c1ccccc1)c1cnc2c(N3CCNCC3)cccc2c1 [INTEPIRDINE]"
  numeric-value: 7
